target: T1, Mena1-112 EVH1 domain (UniProt Q03173 1-112); assay: fluorescence polarization competition against pGolemi^Flu
T1 construct: range 1-112
T1 sequence (Q03173 1-112 limits assumed): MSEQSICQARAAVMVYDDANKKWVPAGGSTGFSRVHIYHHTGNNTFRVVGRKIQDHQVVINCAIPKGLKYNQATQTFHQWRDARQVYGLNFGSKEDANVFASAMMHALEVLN
pIC50: −log10 of the molar value.

| binder | pIC50 |
| --- | --- |
| FEFPPPPTDEE (domain: PPII repeat 2; also called 11 residue peptide comprising PPII repeat 2 of L. monocytogenes ActA) [ActA11] | 5.40 |
